Target: UniProtKB P25116
Sequence (P25116 22-425): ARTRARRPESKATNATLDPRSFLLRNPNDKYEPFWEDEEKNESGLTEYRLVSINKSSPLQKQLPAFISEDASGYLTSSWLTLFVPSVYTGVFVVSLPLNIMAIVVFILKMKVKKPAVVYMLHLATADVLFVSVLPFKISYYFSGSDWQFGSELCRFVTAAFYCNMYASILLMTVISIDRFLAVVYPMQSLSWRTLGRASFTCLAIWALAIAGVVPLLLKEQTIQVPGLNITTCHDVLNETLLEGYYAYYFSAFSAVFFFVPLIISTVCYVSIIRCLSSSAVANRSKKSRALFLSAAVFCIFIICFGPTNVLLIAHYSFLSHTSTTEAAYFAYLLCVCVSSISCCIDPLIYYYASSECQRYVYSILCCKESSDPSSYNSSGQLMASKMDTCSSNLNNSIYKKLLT
Assay: PAR-1 FLIPR Assay
Conditions: HEK 293 cells, calcium signal after PAR-1 selective receptor-activating peptide at 80% activation
endpoint: IC50
Provide a numeric answer, followed by its unit.

C[C@H]1OC(=O)[C@]2(C(N)=O)CC(F)(F)[C@@H](C)[C@H](/C=C/c3ccc(-c4cccnc4C#N)cn3)[C@H]12; 9.68 nM
C[C@H]1OC(=O)[C@]2(CC(N)=O)CC(F)(F)[C@@H](C)[C@H](/C=C/c3ccc(-c4ccccc4C#N)cn3)[C@H]12; 3.14 nM

Now for a further molecule.
Kindly note the recorded IC50 for `C[C@H]1OC(=O)[C@]2(NCC(N)=O)CC(F)(F)[C@@H](C)[C@H](/C=C/c3ccc(-c4ccccc4C#N)cn3)[C@H]12` , which is 4.3 nM

====

IC50 by entry:
Target: human Ether-á-go-go Related Gene (hERG) ion channel (Homo sapiens (Human))
Assay: MK-499 Filter Binding Assay
Details: membranes from HEK293 cell line expressing hERG, [35S]MK-0499 radioligand; read-out: MK499 IC50
# value in µM; strip the unit string

Some solved cases for reference:
COc1ncccc1-c1ccc(/C=C/[C@@H]2[C@@H]3[C@@H](C)OC(=O)[C@]3(CC(N)=O)CC(F)(F)[C@H]2C)nc1 [Example 16]; 25.9
COC(C(N)=O)[C@@]12CC(F)(F)[C@@H](C)[C@H](/C=C/c3ccc(-c4ccccc4C#N)cn3)[C@@H]1[C@@H](C)OC2=O (mixture of isomers) [Example 19]; 47.7

# compound C[C@H]1OC(=O)[C@]2(C(N)=O)CC(F)(F)[C@@H](C)[C@H](/C=C/c3ccc(-c4cccc5c4OC(F)(F)O5)cn3)[C@H]12 [Example 10] ; its IC50 = 15.4

compound Cc1c(F)cccc1-c1ccc(/C=C/[C@@H]2[C@@H]3[C@@H](C)OC(=O)[C@]3(C(N)=O)CC(F)(F)[C@H]2C)nc1 [Example 3] , IC50 observed: 12

====

Target: human Ether-á-go-go Related Gene (hERG) ion channel (Homo sapiens (Human), UniProt Q12809)
Sequence (Q12809 whole entry): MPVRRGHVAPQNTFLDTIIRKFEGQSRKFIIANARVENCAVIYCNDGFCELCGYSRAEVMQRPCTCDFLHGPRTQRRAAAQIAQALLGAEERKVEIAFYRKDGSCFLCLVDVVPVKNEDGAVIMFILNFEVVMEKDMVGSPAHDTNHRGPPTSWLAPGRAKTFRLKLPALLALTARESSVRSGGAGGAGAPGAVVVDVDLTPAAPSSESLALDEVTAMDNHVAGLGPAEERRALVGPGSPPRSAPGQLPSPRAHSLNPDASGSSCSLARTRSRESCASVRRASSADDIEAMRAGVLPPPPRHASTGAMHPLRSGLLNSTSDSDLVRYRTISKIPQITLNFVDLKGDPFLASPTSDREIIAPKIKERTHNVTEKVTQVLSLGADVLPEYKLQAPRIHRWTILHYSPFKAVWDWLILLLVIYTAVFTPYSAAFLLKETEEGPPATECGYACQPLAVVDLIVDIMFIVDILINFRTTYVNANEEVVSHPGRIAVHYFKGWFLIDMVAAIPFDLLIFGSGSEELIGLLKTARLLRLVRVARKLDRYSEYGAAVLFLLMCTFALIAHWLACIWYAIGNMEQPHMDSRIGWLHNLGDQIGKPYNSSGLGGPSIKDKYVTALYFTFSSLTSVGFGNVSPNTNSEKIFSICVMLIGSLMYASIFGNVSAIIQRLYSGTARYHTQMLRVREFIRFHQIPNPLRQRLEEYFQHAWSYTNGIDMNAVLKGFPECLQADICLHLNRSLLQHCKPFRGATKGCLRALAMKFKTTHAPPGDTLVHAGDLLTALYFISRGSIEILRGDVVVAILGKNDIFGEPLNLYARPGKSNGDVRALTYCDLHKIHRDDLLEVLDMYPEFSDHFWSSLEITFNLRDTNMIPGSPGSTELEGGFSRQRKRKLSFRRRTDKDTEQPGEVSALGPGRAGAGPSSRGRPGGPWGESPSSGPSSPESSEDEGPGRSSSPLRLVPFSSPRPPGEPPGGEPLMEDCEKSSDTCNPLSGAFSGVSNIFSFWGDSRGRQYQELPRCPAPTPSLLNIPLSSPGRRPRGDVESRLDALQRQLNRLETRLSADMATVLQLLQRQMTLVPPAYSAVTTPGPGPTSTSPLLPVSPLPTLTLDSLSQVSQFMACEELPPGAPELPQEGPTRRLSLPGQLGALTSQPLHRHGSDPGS
Assay: MK-499 Filter Binding Assay
Settings: membranes from HEK293 cell line expressing hERG, [35S]MK-0499 radioligand; read-out: MK499 IC50
Procedure: This assay is used to evaluate the potential of a compound to cause drug-induced long QT syndrome. Drug cardiac arrhythmia is an important safety concern for pharmaceutical development and health regulatory authorities. Then, 30 μL wash buffer (10 mM HEPES/NaOH, pH 7.4, 130 mM NaCl, 2 mM MgCl2, 1 mM CaCl2) equilibrated to RT were added to each well of the assay plate and subsequently transferred to the filter plate. […]
IC50 for assorted compounds
Your answer is read as µM, so omit the unit and give the number.

Observe how each entry below is paired with its result.
C[C@H]1OC(=O)[C@]2(N3CC(C(N)=O)C3)CC(F)(F)[C@@H](C)[C@H](/C=C/c3ccc(-c4ccccc4C#N)cn3)[C@H]12 [Example 12]; 16.3
C[C@H]1OC(=O)[C@]2(C(N)=O)CC(F)(F)[C@@H](C)[C@H](/C=C/c3ccc(-c4cccnc4C#N)cn3)[C@H]12 [Example 11]; 60

# evaluate next
Form field IC50 for item Cc1cccc(-c2ccc(/C=C/[C@@H]3[C@@H]4[C@@H](C)OC(=O)[C@]4(C(N)=O)CC(F)(F)[C@H]3C)nc2)c1F [Example 2] on human Ether-á-go-go Related Gene (hERG) ion channel (Homo sapiens (Human), UniProt Q12809): 13
